assay: log P by HPLC on reversed-phase column (EEC Directive 79/831 Annex V.A8); type: physicochemical
readout type: logP
Lab note: write the figure by itself, no unit.

CN(CCCc1cccs1)C(=O)c1c(C(F)F)nn(C)c1F = 2.52
Cn1nc(C(F)F)c(C(=O)NC(C)(C)C#Cc2ccc(C#N)cc2)c1F = 2.82

Attention now turns to another entry.
Return reported logP; argument: Cn1nc(C(F)F)c(C(=O)N(CCOc2c(Cl)cccc2Cl)C2CC2)c1F [Example 124]
4.23

----------
test: log P by HPLC on reversed-phase column (EEC Directive 79/831 Annex V.A8); assay type: physicochemical
readout type: logP
Lab note: write the figure by itself, no unit.

Below, each entry is followed by its recorded logP result.
CC(CCc1ccccc1)NC(=O)c1c(C(F)F)nn(C)c1F (stereo not drawn) = 2.88
Cn1nc(C(F)F)c(C(=O)NCCCc2cc3ccccc3s2)c1F = 3.17
Cn1nc(C(F)F)c(C(=S)NC2CCCC2CCC(C)(C)C)c1F (stereo not drawn) = 5.01
Cn1nc(C(F)F)c(C(=O)NC(C)(C)C(=O)Nc2ccccc2)c1F = 2.10
Cn1nc(C(F)F)c(C(=O)NCCOc2ccc(-c3ccccc3)cc2)c1F = 3.44

Return reported logP; argument: Cc1ccc(SCC(C2CC2)N(C)C(=O)c2c(C(F)F)nn(C)c2F)cc1 (stereo not drawn)
3.64

Input Cn1nc(C(F)F)c(C(=O)N(CCOc2ccc(Cl)cc2)C2CCC2)c1Cl
3.99

Input CCCCCCC1CCCCC1NC(=O)c1c(C(F)F)nn(C)c1F (stereo not drawn)
5.07

Provenance of the data: patent US8999956B2
